Taken from PubChem BioAssay AID2060483.

# Tested on: K24384-001-R-PDC complex spheroids, viability;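 also: spheroids exposed to compounds for seven days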
# protocol.details: Anticancer human tumor K24384-001-R-PDC patient-derived pancreatic adenocarcinoma cell line growth inhibition [GQUAD]
# test.context: second compound 1 µM; first compound 0.1 µM; active compounds read low
Binary label based on viability, T/C with cut-off 80%: below gives 1, not below gives 0.

compound	study.system	discrete.label
C=CCn1c(=O)c2cnc(Nc3ccc(N4CCN(C)CC4)cc3)nc2n1-c1cccc(C(C)(C)O)n1 + CN(C)c1ccc(Nc2c3ccc(NC(=O)CCN4CCCC4)cc3nc3cc(NC(=O)CCN4CCCC4)ccc23)cc1	K24384-001-R-PDC complex spheroids, viability	0

In the record for COc1ncnc(C2CC2)c1-c1ncc2cnn(Cc3ccc(-c4nc(C(F)(F)F)cn4C(C)C)cc3)c2n1 + CN(C)c1ccc(Nc2c3ccc(NC(=O)CCN4CCCC4)cc3nc3cc(NC(=O)CCN4CCCC4)ccc23)cc1 , is viability, T/C less than 80%?
0

Determine if O=C(NO)c1cnc(N2CCN(S(=O)(=O)c3ccc4ccccc4c3)CC2)nc1 + Cc1[nH]c2ccc(F)cc2c1-c1nc2c3cccnc3c3ncccc3c2[nH]1 shows viability, T/C strictly lower than 80%.
0

Hello, is viability, T/C of the following compound strictly smaller than 80%? COc1ncnc(C2CC2)c1-c1ncc2cnn(Cc3ccc(-c4nc(C(F)(F)F)cn4C(C)C)cc3)c2n1 + Cc1cnc(CNC(=O)c2c(=O)c3ccc(N4CCCN(C)CC4)nc3n3c2sc2ccccc23)cn1
1

State whether 80% exceeds viability, T/C recorded for C=CC(=O)N1CCN(c2nc(=O)n(-c3c(C)ccnc3C(C)C)c3nc(-c4c(O)cccc4F)c(F)cc23)C(C)C1 (stereo not given) + Cc1cnc(CNC(=O)c2c(=O)c3ccc(N4CCCN(C)CC4)nc3n3c2sc2ccccc23)cn1 .
1
